Reference source: the nanobody polyreactivity screen of Harvey et al. (2022)

- assay-comment: yeast display, Sf9 membrane polyspecificity reagent, FACS + sequencing; frameworks hold sequencing errors
measurement-kind: polyreactivity (PSR sort gate)

Recorded polyreactivity (PSR sort gate), per entry:
1. QVQLVESGGGLVQAGGSLRLSCAASGSIFKQNAMGRYRQAPGKESELVSDITSCGGSTYYADSVKGRFTISRDNAKNTVYLQMNSLKPEDTAVYYCNVVETSLELGWQAFDYWGQGTQVTVSS	low polyreactivity
2. QVQLVESGGGLVQAGGSLRLSCAASGFIIGRNAMGWYRQAPGKERELVAAMSTSGASTYYADSVKGRFTISRDNAKNTVYFQMNSLKPEDTAVYYCAARRPVWDGRGSGYDYWGQGTQVTVSS	low polyreactivity
3. QVQLVESGGGLVQAGGSLRLSCAASVGTFSPNTMGWYRQAPGKERELVAAISSSGSTSYADSVKGRFTISRDNAKNTVYLQMNSLKPEDTAGYFCNADDTISYYASGFDNYDYWGQGTQVTVSS	low polyreactivity
4. QVQLVESGGGLVQAGGSLRLSCAASGSIFRGYAMGWYRQAPGKERELVAAITSRGGSTYYADSVKGRFTISRDNAKNTVYLQMNSLKPEDTAVYYCNKRVYYPWGQGTQVTVSS	high polyreactivity
5. QVQLVESGGGLVQAGGSLRLSCAASGRIFSFNAMGWYRQAPGKERELVAGITYGGNTYYADSVKGRFTISRDNAKNTVYLQMNSLKPEDPAVYYCAAVRGGRHDYWGQGTQVTVSS	low polyreactivity

Q. # input sequence: QVQLVESGGGLVQAGGSLRLSCAASGRIFHYYMGWYRQAPGKERELVAVISSGDGTYYADSVKGRFTISRDNAKNTVYLQMNSLKPEDTAVYYCAADAPREYVDHYKYDDDYWGQGTQVNVSS ; wanted: its polyreactivity (PSR sort gate)
A. low polyreactivity

Q. # input sequence: QVQLVESGGGLVQAGGSLRISCAASGRTFSNYAMGWYRQAPGKERELVAAISGSGGSTRYADSVKGRFTISRDNANITVYLQMNSLKPEDTAVYYCAARGAGPLHNHYSWGQGTQVTVSS ; wanted: its polyreactivity (PSR sort gate)
A. high polyreactivity

Q. # input sequence: QVQLQGSGGGLAQAGDSLRLSCAASGTIFSEYNNGLVSPGAGQRTRTCCRYWCWGNTYYADSAKGRFTTSRDNAKNTVYLQKHSLKPADTAVYYCAFNRPFPSRHIYRGQGTQVTVSS ; wanted: its polyreactivity (PSR sort gate)
A. high polyreactivity

Q. # input sequence: QVQLVESGGALVQAGGSLRLSCAASGSIFRYYAMGWYRQAPVKERELVAAIDFSGGRTYYADSVKGRFTISRDNAKNTVYLQMNRLKPEDTAVYDCARKYTTAYGSTFYYWGQGTQVSVSS ; wanted: its polyreactivity (PSR sort gate)
A. high polyreactivity

Q. # input sequence: QVQLVESGGGLVQAGGSLRLSCAASGSIFPYNPMGWYRQAPGEFGAAISYSSGSTYYADSVKGRFTISRDNAKNTVYLQMNSLKPEDTAVYYCAAGLPKYEHEYWGQVTQVTVSS ; wanted: its polyreactivity (PSR sort gate)
A. low polyreactivity

Q. # input sequence: QVQLVESGGGLVQARGSLRLTCAASGSTFSENAMGWYRQAPGKERELVAAISRGGGRTYYADSVKGRFTISRDNAKNTVYLQMNSLKPEDTAVYYCNAGLPAGNHGYDYWGQGTQVTVSS ; wanted: its polyreactivity (PSR sort gate)
A. high polyreactivity

Q. # input sequence: QVQLVESGGGLVQAGGSLRLSCAASGRTLYKNTMGWYRPAPGKERELVAAINYSGGSTYYADSVKGRFTISRDNAKNTVYLQMNSLKPEDTAVYYCAADYYDSTGEYDYWGQGTQVTVSS ; wanted: its polyreactivity (PSR sort gate)
A. high polyreactivity

Q. # input sequence: QVQLVESGGGLVQAGGSLRLSCAASGITFGRNTMGWYRQAPGKERELVAAIDSGGNTYADSVKGRFTISRDNAKNTVYLLMNSLKPDDTAVYYCAVDGGEFSSYVYWGQGTQVTVSS ; wanted: its polyreactivity (PSR sort gate)
A. low polyreactivity

Q. # input sequence: QVQLVESGGGLVQAGGSLRLSCAASGSTFFRYAMGWYRQAPGKEREFVAAITSSGGNTYYADSVKGRFTISRDNAKNTVYFQMNSLKPEDTAVYYCAAVWYSPYVKYNYWGQGTQVTVSS ; wanted: its polyreactivity (PSR sort gate)
A. low polyreactivity

Q. # input sequence: QVQLVESGGGLVQAGGSLRLSCAASGYIFGYVMGWYRQAPGKERELVAAITYSSGNTYYADSVKGRFTISRDNAKNTVYLQMNSLKPEDTAVYYCAKQAYYKGRLAYGYWGQGTQVTVSS ; wanted: its polyreactivity (PSR sort gate)
A. high polyreactivity

Q. # input sequence: QVQLVESGGGLVQAGGSLRLSCAASGSIFGYYAMGWYRQAPGKERELVAAISSGGSTKYADSVKGRFTISRDNAKNTVYLQMNSLKPEDTAVYYFNAAYSQIRFNYRGQGTQVTVSS ; wanted: its polyreactivity (PSR sort gate)
A. high polyreactivity

Q. # input sequence: QVQLVESGGGLVQAGGSLRLSCAASGGTFSKYAMGWYRQAPGKEREFVAAITVSGGGTYYADSVKGRFTISRDNAKNTVYLQMNSLKPEDTAVYYCAADLAWTASDYWGQGTQVTVSS ; wanted: its polyreactivity (PSR sort gate)
A. low polyreactivity

Q. # input sequence: QDQLVESGGGLVQAGGSLRLSCAASGFTFTIYAMGGYRQAPGKEREFVAAISYTDGSTFYVDSVKGRFTISRDYAKNTVYLQMTSLKPEDTAVYYCAKDRPGWVHRRPTGGFDYWGQGTQVTVSS ; wanted: its polyreactivity (PSR sort gate)
A. low polyreactivity

Q. # input sequence: QVQLVESGGGLVQAGGSLRLSCAASGSILGTYAMGWYRQAPGKERELVAAISASGRTSYADSEKGRFTISRDNAKNTVYLQMNSLKPEDTAVYDCNASNYFVLINDPDAAPWLYDYWGHGTQVTVSS ; wanted: its polyreactivity (PSR sort gate)
A. low polyreactivity

Q. # input sequence: QVQLVESGGGLVPAGGSLRLSCAASGRTLYGYAMGWYRQAPGKERELVAAISGGGSTYYADSVKGRFTISRDNAKNTVYLQMNSLKPEDTAVYYCARRANFYVRRYYWGQGSQVTVSS ; wanted: its polyreactivity (PSR sort gate)
A. high polyreactivity

Q. # input sequence: QVQLVESGGGLVQAGGSLRLSWAASGRTFNRYVMGWYRQAPGKERELVAAISRSGTSTYYADSVKGRFTISRDNAKNTVYLQMNSLKPEDTAVYYCAREYQTVSFKNYYWGQGTQVTVSS ; wanted: its polyreactivity (PSR sort gate)
A. high polyreactivity
